- assay_comment: Metabolic stability in human liver microsomes assessed as half-life
- Assay type: ADME, Microsome
- measurement_context: microsomes
Label True for high-side t1/2 (at or above 40 min) and False for low-side t1/2 (below it).

Study these solved cases before continuing.
| compound | class_assignment |
| --- | --- |
| O=C1CCN(C(=O)Nc2ccc(F)c(Cl)c2)C2CCCCC12 (stereo in doubt; 60) | True |
| O=C1CCN(C(=O)Nc2ccc(F)c(Cl)c2)C2CCCCC12 (stereo not given) | False |
| CCC(C)NS(=O)(=O)c1cc2c(c(C(=O)Nc3ccc(F)c(Cl)c3)c1)OCCO2 (stereo not given) | False |

Request: Is reported t1/2 greater than or equal to 40 min here: `O=C(Nc1ccc(F)c(Cl)c1)N1CCOc2ccccc21`
Result: False

Request: Is reported t1/2 greater than or equal to 40 min here: `O=C1CCN(C(=O)Nc2ccc(F)c(Cl)c2)c2ccccc21`
Result: True

* * *

- Test system: Hepatitis B virus
- assay_comment: Antiviral activity against HBV infected in mouse AML12HBV10 cells assessed as reduction in viral replication incubated for 48 hrs and measured by [alpha-32P]UTP-labeled radio-probe based dot blot hybridization assay
- Type: functional, organism-based
- measurement_context: Hepatitis B virus, AML12HBV10, 48 h
Reported EC50 values follow for various compounds
Numbers only here, please. The scale is nM.

| compound | measurement_units | EC50 |
| --- | --- | --- |
| O=C(Nc1ccnc(Cl)c1)c1cccc2c1OCCO2 | nM | 4650 |
| O=C(Nc1cc(F)c(F)c(F)c1)c1cccc2c1OCCO2 | nM | 280 |
| Cc1cc(NC(=O)N2CCC(=O)[C@H]3CCCC[C@H]32)ccc1F | nM | 380 |
| O=C(Nc1ccc(F)c(Cl)c1)c1cccc2c1OCC2 | nM | 2180 |
| N#Cc1ccc(NC(=O)c2cccc3c2OCCO3)cc1Cl | nM | 3840 |

Request: Item O=C(Nc1ccc(F)c(Cl)c1)C1CCCc2ccccc21 (centres undefined) has what recorded EC50?
Result: 9400

Request: Item O=C1CCC(C(=O)Nc2ccc(F)c(Cl)c2)c2ccccc21 (centres undefined) has what recorded EC50?
Result: 1670

Request: Item `O=C1CCN(C(=O)Nc2cccc(Cl)c2)[C@@H]2CCCC[C@H]12` has what recorded EC50?
Result: 220

Request: Item O=C1CCN(C(=O)Nc2ccc(F)c(Cl)c2)C(Cc2ccccc2)C1 (centres undefined) has what recorded EC50?
Result: 5110

Request: Item `O=C(Nc1ccc(O)c(Cl)c1)c1cccc2c1OCCO2` has what recorded EC50?
Result: 9830

Request: Item `O=C(Nc1ccc(F)c(Cl)c1)c1cccc2c1OCCC2` has what recorded EC50?
Result: 750

Request: Item `O=C(Nc1ccc(C(F)(F)F)c(Cl)c1)c1cccc2c1OCCO2` has what recorded EC50?
Result: 1590

Request: Item `O=C(Nc1ccc(F)c(Cl)c1)N1CCOc2ccccc21` has what recorded EC50?
Result: 520

Request: Item `O=C1CCN(C(=O)Nc2ccc(F)c(Cl)c2)c2ccccc21` has what recorded EC50?
Result: 1320

* * *

- assay_comment: Observed volume of distribution at steady state in mouse at 3 mg/kg, iv
- Format: ADME, organism-based
- measurement_context: in vivo, read-out: Vdss
endpoint_label: Vd (L/kg)
Numbers only here, please. The scale is L/kg.

Request: Item O=C1CCN(C(=O)Nc2ccc(F)c(Cl)c2)C2CCCCC12 (stereo in doubt; 61) has what recorded Vd?
Result: 0.8

* * *

- System: Hepatitis B virus
- assay_comment: Antiviral activity against HBV infected in mouse AML12HBV10 cells assessed as reduction in viral replication incubated for 48 hrs and measured by [alpha-32P]UTP-labeled radio-probe based dot blot hybridization assay
- Format: functional, organism-based
- measurement_context: Hepatitis B virus, AML12HBV10, 48 h
Doc: threshold 6 µM (exclusive). Items with EC50 beneath it return class 1; others return class 0.

Study these solved cases before continuing.
| molecule | class_assignment |
| --- | --- |
| O=C1CCN(C(=O)Nc2cc(F)c(F)c(F)c2)[C@@H]2CCCC[C@H]12 | class 1 |
| O=C1CCN(C(=O)Nc2ccc(F)c(C(F)F)c2)[C@@H]2CCCC[C@H]12 | class 1 |

Request: Please state whether EC50 is below 6 µM for `O=C1CCN(C(=O)Nc2ncc(F)c(Cl)n2)[C@@H]2CCCC[C@H]12`
Result: class 0

Request: Please state whether EC50 is below 6 µM for `O=C(Nc1cc(Cl)nc(Cl)c1)c1cccc2c1OCCO2`
Result: class 0

Request: Please state whether EC50 is below 6 µM for `O=C(Nc1ccc(F)c(Cl)c1)c1cc(S(=O)(=O)N2CCC(O)CC2)cc2c1OCCO2`
Result: class 1

Request: Please state whether EC50 is below 6 µM for O=C1CCN(C(=O)Nc2ccc(F)c(Cl)c2)C(c2ccccc2)C1 (stereo unspecified)
Result: class 1

* * *

Reported CC50 values follow for various compounds
- assay_comment: Cytotoxicity against mouse […] measured by MTT assay
- Assay type: toxicity, cell-based, AML12HBV10
- measurement_context: aml12hbv10

// worked examples, CC50 included
| compound | measured_value |
| --- | --- |
| O=C1CC2CC1CN2C(=O)Nc1ccc(F)c(Cl)c1 (configuration not stated) | > 100 µM |
| O=C1CCC(C(=O)Nc2ccc(F)c(Cl)c2)c2ccccc21 (configuration not stated) | > 100 µM |
| O=C(NC1CC(F)(F)C1)c1cccc2c1OCCO2 | > 100 µM |
| CC1(C)Cc2cccc(C(=O)Nc3ccc(F)c(Cl)c3)c2O1 | > 50 µM |
| O=C(Nc1ccc2ncsc2c1)c1cccc2c1OCCO2 | > 50 µM |

Request: Item `O=C(Nc1ccc(F)c(Cl)c1)N1CCS(=O)(=O)c2ccccc21` has what recorded CC50?
Result: > 100 µM

Request: Item `O=C(Nc1ccc(N2CCOCC2)c(Cl)c1)c1cccc2c1OCCO2` has what recorded CC50?
Result: > 25 µM

Request: Item `O=C(Nc1ccc(F)c(Cl)c1)n1[nH]c(=O)c2ccccc21` has what recorded CC50?
Result: > 100 µM

Request: Item `O=C(NCc1ccc(F)cc1F)c1cccc2c1OCCO2` has what recorded CC50?
Result: > 20 µM

Request: Item `O=C1COc2cccc(C(=O)Nc3ccc(F)c(Cl)c3)c2N1` has what recorded CC50?
Result: > 50 µM

Request: Item `O=C(Nc1ccc(F)c(Cl)c1)c1cccc2c1OCCO2` has what recorded CC50?
Result: > 50 µM

Request: Item `O=C(Nc1ccc(F)c(Cl)c1)c1cccc2c1OCCC2` has what recorded CC50?
Result: > 12.5 µM

* * *

- assay_comment: Apparent permeability across apical to basolateral membrane in human Caco-2 cells
- Assay type: ADME, cell-based
endpoint_label: Papp A→B

Request: Item O=C1CCN(C(=O)Nc2ccc(F)c(Cl)c2)[C@H]2CCCC[C@@H]12 (relative stereo) has what recorded Papp A→B?
Result: 14.7 ×10⁻⁶ cm/s

* * *

Reported log10(EC50) values follow for various compounds
- System: Hepatitis B virus
- assay_comment: Antiviral activity against HBV infected in mouse AML12HBV10 cells assessed as reduction in viral replication incubated for 48 hrs and measured by [alpha-32P]UTP-labeled radio-probe based dot blot hybridization assay
- Assay type: functional, organism-based
- measurement_context: Hepatitis B virus, AML12HBV10, 48 h
The base-10 logarithm of EC50, taken with EC50 in µM, is what appears here.

// worked examples, log10(EC50) included
| compound | log10(EC50) |
| --- | --- |
| CCC(C)NS(=O)(=O)c1cc2c(c(C(=O)Nc3ccc(F)c(Cl)c3)c1)OCCO2 (configuration not stated) | 0.21 |
| O=C(CC1COCCO1)Nc1ccc(F)c(Cl)c1 (configuration not stated) | 0.70 |

Request: Item `O=C(NCc1ccc(F)cc1F)c1cccc2c1OCCO2` has what recorded log10(EC50)?
Result: 0.66

* * *

- Test system: Hepatitis B virus
- assay_comment: Antiviral activity against HBV infected in mouse AML12HBV10 cells assessed as reduction in viral replication incubated for 48 hrs and measured by [alpha-32P]UTP-labeled radio-probe based dot blot hybridization assay
- Assay type: functional, organism-based
- measurement_context: Hepatitis B virus, AML12HBV10, 48 h
Reported EC50 values follow for various compounds
Numbers only here, please. The scale is µM.

// worked examples, EC50 included
| compound | EC50 (µM) |
| --- | --- |
| O=C1CC(c2ccccc2)N(C(=O)Nc2ccc(F)c(Cl)c2)c2ccccc21 (stereo not given) | 2.89 |
| CC1(C)Cc2cccc(C(=O)Nc3ccc(F)c(Cl)c3)c2O1 | 1.48 |
| O=C(Nc1ccc2c(c1)OCO2)c1cccc2c1OCCO2 | 4.2 |
| O=C(Nc1ccc(F)c(Cl)c1)c1cccc2cc[nH]c12 | 4.48 |

--- query ---
Request: Item `O=C(Nc1ccc(F)c(Cl)c1)c1cccc2c1OCCO2` has what recorded EC50?
Result: 0.2
